Data credit: paper PMC4680857

Biological target: rSTING CTD (residues 155–341) (Rattus norvegicus, UniProt F1M391)
Construct: rSTING (residues 155–341); His tag (TEV protease-cleavable) (N); made in house; host or cells: Escherichia coli BL21 (DE3)
Sequence (F1M391 155-341): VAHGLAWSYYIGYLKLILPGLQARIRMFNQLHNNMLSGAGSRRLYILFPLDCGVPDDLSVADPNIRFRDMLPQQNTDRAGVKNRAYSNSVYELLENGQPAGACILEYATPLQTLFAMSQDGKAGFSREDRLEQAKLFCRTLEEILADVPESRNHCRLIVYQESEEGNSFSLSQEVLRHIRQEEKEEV
Assay: ITC binding to rSTING-CTD
readout type: pKd
Scale explanation: pKd corresponds to minus log10 of a concentration expressed in moles per litre.

Req: Record lookup: for rSTING CTD (residues 155–341) (Rattus norvegicus, UniProt F1M391), what pKd belongs to Nc1nc2c(ncn2[C@@H]2O[C@@H]3COP(=O)(O)O[C@H]4[C@@H](O)[C@H](n5cnc6c(N)ncnc65)O[C@@H]4COP(=O)(O)O[C@@H]2[C@@H]3O)c(=O)[nH]1 [2′3′-cGAMP] ?
Resp: 6.92
